Target: OsSMF1 (Oryza sativa, UniProt Q6ZLB0 1-436)
Sequence: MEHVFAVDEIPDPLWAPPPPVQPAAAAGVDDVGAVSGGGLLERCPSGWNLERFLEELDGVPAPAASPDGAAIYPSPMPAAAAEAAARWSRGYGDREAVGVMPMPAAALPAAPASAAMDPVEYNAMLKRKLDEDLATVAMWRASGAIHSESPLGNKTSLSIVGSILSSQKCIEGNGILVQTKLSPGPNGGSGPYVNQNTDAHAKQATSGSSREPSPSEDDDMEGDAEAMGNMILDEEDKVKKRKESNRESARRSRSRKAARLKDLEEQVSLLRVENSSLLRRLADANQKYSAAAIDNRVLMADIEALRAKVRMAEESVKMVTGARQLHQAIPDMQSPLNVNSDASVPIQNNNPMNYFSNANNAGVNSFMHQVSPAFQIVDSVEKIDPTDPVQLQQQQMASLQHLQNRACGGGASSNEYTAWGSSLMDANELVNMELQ
Experiment: protein-binding microarray (RPBM); PBS, 2% BSA, 51.3 ng/ul salmon testes DNA, 50 uM zinc acetate, 200 nM TF, 25 C, 1 h; high values mean tight binding
Conditions: protein: recombinant; tags: N-terminal polyhistidine and DsRed monomer fusion (pET32a); chain copies: 2; label: CyDye5-dUTP incorporated in the synthesized complementary strand; 3' TTTTT single-stranded linker to array surface; dsDNA, one strand shown
In all, about 39,000 sequences were measured (“fluorescence intensity (a.u.)”: median about 4,300, highest 2% from about 39,000 on). Shown is part of a subset that was picked to be rich in the highest values.
# maps each entry to its binding signal

Examples with their reported binding signal follow.
TTCCATCCAGAGTGCGTCACGAACGCGCCAGTCGCCCGGTCGGAGTCACCTAGTGCAG ... 3990 fluorescence intensity (a.u.)
TGTCCCCGCGCATCCGCGGACGTGGCTGGGCAACTGCTCGCGGAGTCACCTAGTGCAG ... 8030 fluorescence intensity (a.u.)
CACGATCCATCATATCGCTTGAGCTAGCCACAACACACAACGGAGTCACCTAGTGCAG ... 22100 fluorescence intensity (a.u.)
TACTGCATGCGCAAAGAGTTAATCCGTGGGGCTCGTGGGACGGAGTCACCTAGTGCAG ... 45300 fluorescence intensity (a.u.)

Attention now turns to another entry.
State the recorded binding signal for this entry: TGTTGTGCTGGTTGGTTCCAGATCTAACAGTGACAGTGCGCGGAGTCACCTAGTGCAG
4380 fluorescence intensity (a.u.)

* * *

# maps each entry to its binding signal
Target: OsSMF1 (Oryza sativa, UniProt Q6ZLB0 1-436)
Sequence: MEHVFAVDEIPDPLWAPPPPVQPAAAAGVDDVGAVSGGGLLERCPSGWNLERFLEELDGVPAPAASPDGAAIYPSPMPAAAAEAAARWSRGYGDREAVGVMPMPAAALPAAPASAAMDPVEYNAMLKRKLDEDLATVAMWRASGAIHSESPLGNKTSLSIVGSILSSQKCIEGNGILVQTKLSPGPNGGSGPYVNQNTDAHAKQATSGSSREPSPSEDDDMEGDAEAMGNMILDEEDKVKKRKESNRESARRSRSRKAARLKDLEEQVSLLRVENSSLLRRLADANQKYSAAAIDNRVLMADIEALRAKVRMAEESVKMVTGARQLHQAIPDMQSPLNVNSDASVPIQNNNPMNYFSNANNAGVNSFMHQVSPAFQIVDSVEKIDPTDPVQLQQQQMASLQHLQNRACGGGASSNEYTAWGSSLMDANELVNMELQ
Experiment: protein-binding microarray (RPBM); PBS, 2% BSA, 51.3 ng/ul salmon testes DNA, 50 uM zinc acetate, 200 nM TF, 25 C, 1 h; high values mean tight binding
Details: protein: recombinant; tags: N-terminal polyhistidine and DsRed monomer fusion (pET32a); chain copies: 2; label: CyDye5-dUTP incorporated in the synthesized complementary strand; 3' TTTTT single-stranded linker to array surface; dsDNA, one strand shown
The full ranking holds about 39,000 sequences; the median of “fluorescence intensity (a.u.)” is about 4,300, and the highest 2% start at about 39,000. The sample holds the highest values, similar sequences and a random draw of the others, so the mix is not that of the screen.

Examples with their reported binding signal follow.
TATATACTCTCTTCGTTTCAAAATGTTTGACGCCGTTAACCGGAGTCACCTAGTGCAG ... 3670 fluorescence intensity (a.u.)
GCAGTAGACACGACGTACTTGTCAATGGTGAGGCATTTATCGGAGTCACCTAGTGCAG ... 3350 fluorescence intensity (a.u.)
CATTCCCCTCTCCCCAATTTACCATACACACATGGATGTACGGAGTCACCTAGTGCAG ... 3640 fluorescence intensity (a.u.)
AATAACCACGTATATATAACTTCTAACCCTAGTTAACAACCGGAGTCACCTAGTGCAG ... 3310 fluorescence intensity (a.u.)

Attention now turns to another entry.
State the recorded binding signal for this entry: GTTATAAGACGTTTTGATTTTAGTCAAAGTCAAACTATTCCGGAGTCACCTAGTGCAG
32600 fluorescence intensity (a.u.)

* * *

Target: OsSMF1 (Oryza sativa, UniProt Q6ZLB0 1-436)
Sequence: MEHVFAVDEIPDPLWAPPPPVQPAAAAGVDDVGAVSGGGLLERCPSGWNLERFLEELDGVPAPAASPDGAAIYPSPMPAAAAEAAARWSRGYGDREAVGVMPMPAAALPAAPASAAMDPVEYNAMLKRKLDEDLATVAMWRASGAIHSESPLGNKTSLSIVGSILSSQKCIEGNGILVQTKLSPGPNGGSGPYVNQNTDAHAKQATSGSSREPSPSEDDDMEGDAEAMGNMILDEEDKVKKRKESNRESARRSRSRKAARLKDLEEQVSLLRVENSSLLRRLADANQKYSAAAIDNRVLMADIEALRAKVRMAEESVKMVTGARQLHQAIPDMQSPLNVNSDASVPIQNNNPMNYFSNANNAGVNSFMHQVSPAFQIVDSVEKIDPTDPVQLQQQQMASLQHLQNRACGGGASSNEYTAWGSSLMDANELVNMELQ
Test: protein-binding microarray (RPBM); PBS, 2% BSA, 51.3 ng/ul salmon testes DNA, 50 uM zinc acetate, 200 nM TF, 25 C, 1 h; high values mean tight binding
Details: protein: recombinant; tags: N-terminal polyhistidine and DsRed monomer fusion (pET32a); chain copies: 2; label: CyDye5-dUTP incorporated in the synthesized complementary strand; 3' TTTTT single-stranded linker to array surface; dsDNA, one strand shown
Over roughly 39,000 sequences, “fluorescence intensity (a.u.)” has its median near 4,300; the highest 2% begin near 39,000. For the sample, the highest values were picked, then their nearest neighbours and some sequences at random.
readout: binding signal

State the recorded binding signal for this entry: AAAACGACCGGTTTTGACGTAAATCCACAAGGCGTTATGACGGAGTCACCTAGTGCAG
58400 fluorescence intensity (a.u.)

GTTTGTTGTCGATACAATCACTAGTTGTGTTTGTTAATTTCGGAGTCACCTAGTGCAG ?
4170 fluorescence intensity (a.u.)

CTATTAGAATATTTTATAATAGTTAATAGTTAATTAATTACGGAGTCACCTAGTGCAG ?
39700 fluorescence intensity (a.u.)

AGTCGCACGCCAAGTGTTTGTTGTTTTGCCAAGCAAGATGCGGAGTCACCTAGTGCAG ?
3520 fluorescence intensity (a.u.)

GATTGAAACATCAAGGACTAAACTGAGTCTCAGATGAAACCGGAGTCACCTAGTGCAG ?
58100 fluorescence intensity (a.u.)

CTAATATATTGACGTGTAATTCTTTTGTGTGTTTGTGAAACGGAGTCACCTAGTGCAG ?
6530 fluorescence intensity (a.u.)

CATTGCTTTGTTTGATCTTGTGTGCCAATAATTGATGAAACGGAGTCACCTAGTGCAG ?
55900 fluorescence intensity (a.u.)

CTGAAACCAACATCCAAGTCATCATGTCCAAGATGTCTCCCGGAGTCACCTAGTGCAG ?
6640 fluorescence intensity (a.u.)

CTAATATGGATAGATTGAAACATCAAGGACTAAACTGAGCCGGAGTCACCTAGTGCAG ?
3460 fluorescence intensity (a.u.)

* * *

# maps each entry to its binding signal
Target: OsSMF1 (Oryza sativa, UniProt Q6ZLB0 1-436)
Sequence: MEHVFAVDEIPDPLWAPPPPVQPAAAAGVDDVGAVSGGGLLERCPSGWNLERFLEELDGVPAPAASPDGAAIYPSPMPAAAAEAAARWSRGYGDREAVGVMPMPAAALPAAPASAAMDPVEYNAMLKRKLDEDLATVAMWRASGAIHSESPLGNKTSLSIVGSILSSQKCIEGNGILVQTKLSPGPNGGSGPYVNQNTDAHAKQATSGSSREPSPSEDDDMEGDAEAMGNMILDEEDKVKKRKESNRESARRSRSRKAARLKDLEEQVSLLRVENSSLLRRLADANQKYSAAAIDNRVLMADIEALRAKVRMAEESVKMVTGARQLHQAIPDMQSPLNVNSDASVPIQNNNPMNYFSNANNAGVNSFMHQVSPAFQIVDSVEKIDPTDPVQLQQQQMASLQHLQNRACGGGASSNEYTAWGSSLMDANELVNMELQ
Assay: protein-binding microarray (RPBM); PBS, 2% BSA, 51.3 ng/ul salmon testes DNA, 50 uM zinc acetate, 200 nM TF, 25 C, 1 h; high values mean tight binding
Conditions: protein: recombinant; tags: N-terminal polyhistidine and DsRed monomer fusion (pET32a); chain copies: 2; label: CyDye5-dUTP incorporated in the synthesized complementary strand; 3' TTTTT single-stranded linker to array surface; dsDNA, one strand shown
In all, about 39,000 sequences were measured (“fluorescence intensity (a.u.)”: median about 4,300, highest 2% from about 39,000 on). The list comes from a sample in which the highest values are over-represented; it also holds close analogues and randomly drawn sequences.

Examples with their reported binding signal follow.
AACCCTAAGACTAGAGGCGGGCTGGAGCGTGGAGGCGGGACGGAGTCACCTAGTGCAG ... 3240 fluorescence intensity (a.u.)
AAGAAGAAGACGACGACGTGGCGAGCCAAGTAGCAGCAAACGGAGTCACCTAGTGCAG ... 3620 fluorescence intensity (a.u.)
CTACCAGACCCGTGGGCCGGCTCTGCCTCGCCTAATCCAGCGGAGTCACCTAGTGCAG ... 47000 fluorescence intensity (a.u.)
GTTACGACAAGTGCCACAAACCAGCAGAAGCAAAGGTAGACGGAGTCACCTAGTGCAG ... 47900 fluorescence intensity (a.u.)

Attention now turns to another entry.
State the recorded binding signal for this entry: AAAGGGCAGGCACATCGCTTTCGGGCCCTGTCACGTACCCCGGAGTCACCTAGTGCAG
3920 fluorescence intensity (a.u.)
